Values from PubChem BioAssay

- System Name: Homeobox protein Hox-A13 (Mus musculus)
- Protocol Details: inhibitors of HoxA13-DNA binding, primary screen, biochemical, fluorescence polarization, labeled oligonucleotide (AID 1185)
- Experimental Parameters: 15 min, called active from +8 up or from −8 down
Calls of active or inactive are those of the source.
The reply should be one of these categories: active, inactive

Example entries begin here.
{"columns": ["Compound", "System Name", "Answer Label"],
 "data": [
  ["CN1C(=O)C2C=CC(C(O)c3ccc(N(C)C)cc3)N(Nc3ccc([N+](=O)[O-])cc3[N+](=O)[O-])C2C1=O (centres undefined)", "Homeobox protein Hox-A13 (Mus musculus)", "inactive"],
  ["COc1cc([C@@H]2N[C@H](C(=O)O)Cc3c2[nH]c2ccccc32)cc(OC)c1OC", "Homeobox protein Hox-A13 (Mus musculus)", "inactive"],
  ["CCC(=O)[C@]12O[C@@]3([C@@H]4C(=O)OCC[C@@H]41)N(CC)C(C)=C(C(=O)OC)[C@@H](c1ccccc1)N3C2=O", "Homeobox protein Hox-A13 (Mus musculus)", "inactive"],
  ["O=C1C[C@@](C(=O)NCCN2CCOCC2)(c2ccc([N+](=O)[O-])cc2)[C@@H](c2ccc(CO)cc2)N1C1CCCCC1", "Homeobox protein Hox-A13 (Mus musculus)", "inactive"],
  ["CC(C)N1CC=CC23O[C@@H]4/C=C\\CCCOC(=O)C4[C@H]2C(=O)N(CCO)[C@@H]3C1=O (some centres undefined)", "Homeobox protein Hox-A13 (Mus musculus)", "inactive"],
  ["CCCC=C(CCC)[C@@H](NC(=O)c1ccc(C(F)(F)F)cc1)c1ccccc1", "Homeobox protein Hox-A13 (Mus musculus)", "inactive"]
]}

Answer briefly: the call reported for CC(C)C[C@@H]1NC(=O)[C@H](CC(C)C)NC(=O)[C@@]23C(=O)N[C@@H](Cc4ccccc4)C2[C@H](C)[C@@]2(C)O[C@H]2C3/C=C/CC/C=C/CNC1=O (some centres undefined) in this assay. inactive

Hi, do you know how CCCC=C(CCC)[C@@H](NS(=O)(=O)c1cccc(C(F)(F)F)c1)c1ccc(C(=O)OC)cc1 came out in this test? inactive

For C=CCN(C(=O)C1N(c2ccc(CCO)cc2)C(=O)C2C(C(=O)O)C3C=CC21O3)C(C)(C)C (centres undefined) , what call appears in the results of this test? inactive

# outcome recorded in this test, key = Cc1ccc(S[C@]2(C(=O)O)CC(=O)N(Cc3ccccc3)[C@@H]2c2ccc(CO)cc2)cc1 inactive

Identify the outcome logged in this assay for the compound shown: C[N+](C)(C)CCCC[C@@H]1NC(=O)[C@H]2C[C@@H](C(=O)NCc3ccc(F)cc3)[C@@H](c3cccc(OCCO)c3)N2C1=O inactive
